experiment: basal RPMI8226 mitochondrial membrane potential changes, profiling panel, cell-based, JC-1 fluorescence, 24 h, 100 nL compound (AID 1169); conditions: RPMI8226 myeloma, JC-1 mitochondrial potential fluorescence, higher = more signal; further: test concentration not given here
Output true for z-score not less than 0.1; output false otherwise.

Assess whether reported z-score for CC(C)CNC(=O)[C@@]1(C)c2ccccc2C(=O)N(Cc2cc(F)cc(C(F)(F)F)c2)[C@H]1c1ccc(CO)cc1 sits at 0.1 or higher.
false

Would you mind doing C[C@]1(C(=O)NCC(F)(F)F)c2ccccc2C(=O)N(Cc2ccc(OC(F)(F)F)cc2)[C@H]1c1ccc(CO)cc1 as well?
true

Would you mind doing C=CCC(OC(C)=O)[C@@H]1[C@@H](N(Cc2cccc3ccccc23)C(=O)c2ccc(-c3ccccc3)cc2)c2cc(OCCCO)ccc2N1C(=O)c1ccc2ccccc2n1 (some centres not stated) as well?
true

Would you mind doing O=C1O[C@H](c2ccccc2)[C@H](c2ccccc2)N2[C@H]1[C@@H](C(=O)NC[C@H](O)c1ccccc1)[C@]1(C(=O)Nc3ccc(C#CCCO)cc31)[C@H]2c1ccccc1OCCO as well?
false

Would you mind doing CCCCC(O)C1C=CC2C(=O)NC(=O)C2N1Nc1ccccn1 (configuration not stated) as well?
true

Would you mind doing C=C(CCCC)C(=O)CC[C@H](OC(C)=O)c1ccccc1OCCO as well?
false

###

Hi there, I'd appreciate the recorded z-score for every entry that follows.
experiment: A549 lung cancer cell viability effects, profiling panel, resazurin fluorescence, 24 h, PK04 Diversity Set (AID 1171); conditions: higher = more signal, called active from +8 up or from −8 down; further: test concentration not given here
Activity calls are given as the source filed them.

Would you mind telling me what z-score value was observed for CCOC(=O)C1=C[C@@H](C(C)(C)C)N(S(=O)(=O)c2ccc(C)cc2)[C@H]1c1ccccc1Cl ?
0.772 (inactive)

Would you mind doing COCCOC(=O)N1C(=O)[C@@]2(c3ccccc31)[C@H](C(=O)N1CCCCCCC1)[C@H]1C(=O)O[C@H](c3ccccc3)[C@H](c3ccccc3)N1[C@@H]2c1ccc(O)cc1 as well?
0.17 (inactive)

Would you mind doing COCC(=C=CC[C@@H](O)c1ccc(OCCO)cc1)C[C@@H](O)COCc1ccccc1 as well?
0.583 (inactive)

Would you mind doing COc1ccccc1CN1C(=O)c2ccccc2[C@](Cc2ccccc2I)(C(=O)NCCCN(C)C)[C@@H]1c1ccc(CO)cc1 as well?
-7.15 (inactive)

Would you mind doing C=CCC(OC(C)=O)[C@@H]1[C@@H](N(Cc2cccc3ccccc23)C(=O)c2ccc(-c3ccccc3)cc2)c2cc(OCCCO)ccc2N1C(=O)c1ccc2ccccc2n1 (stereo not given in full) as well?
0.701 (inactive)

Would you mind doing C=CC[C@]1(C(=O)NCCCOC)N=C(c2ccc(OCCCO)cc2)O[C@H]1c1ccccc1 as well?
1.32 (inactive)

Would you mind doing CN(C)CCCCNC(=O)[C@H]1C[C@H]2C(=O)NCC(=O)N2[C@H]1c1cccc(OCCO)c1 as well?
1.26 (inactive)

Would you mind doing C[C@]1(C(=O)NCC(F)(F)F)c2ccccc2C(=O)N(Cc2ccc(OC(F)(F)F)cc2)[C@H]1c1ccc(CO)cc1 as well?
0.0382 (inactive)

Would you mind doing CC(C)(C)OC(=O)CC[C@]1(C(N)=O)N=C(c2ccc(OCCCO)cc2)O[C@H]1c1ccccc1CN=[N+]=[N-] as well?
0.316 (inactive)

Would you mind doing CCOC(=O)C[C@H]1[C@H](OC(=O)c2ccc(-c3ccccc3)cc2)[C@@H](NC(=O)CC(C)C)c2cc(OCCCO)ccc2N1C(=O)Cc1ccc(OC)cc1 as well?
0.207 (inactive)

Would you mind doing CC(C)CNC(=O)[C@@H]1c2ccccc2C(=O)N(C2Cc3ccccc3C2)[C@H]1c1ccc(CO)cc1 as well?
0.797 (inactive)

Would you mind doing NCCCC[C@@H]1NC(=O)[C@H]2C[C@@H](C(=O)NCc3ccc(F)cc3)[C@@H](c3ccc(O)cc3)N2C1=O as well?
-0.537 (inactive)

Would you mind doing CN(C)CCCC[C@@H]1NC(=O)[C@H]2C[C@@H](C(=O)NCc3ccc(F)cc3)[C@@H](c3ccc(O)cc3)N2C1=O as well?
0.377 (inactive)

Would you mind doing Cc1ccc(S(=O)(=O)N2[C@@H](c3ccccc3)C(C(=O)O)=CC[C@H]2c2ccc(C#N)cc2)cc1 as well?
-0.748 (inactive)

Would you mind doing COC(=O)[C@@]1(Cc2ccccc2CN=[N+]=[N-])COC(c2ccc(OCCCO)cc2)=N1 as well?
-0.657 (inactive)

###

test: binders from COS7 lysate, DM2A8 probe, primary screen, torsin A project, cell lysate, small-molecule microarray, fluorescence 635/667 (AID 1065); conditions: higher = more signal, COS7 lysate expressing mutant human TOR1A
Would you mind classing the entries by composite z-score? Ranges: LOW (below -0.01), MEDIUM (-0.01 to below 0.7), HIGH (0.7 or more)

Hey, which category is CN(C)CCCNC(=O)[C@@]1(Cc2ccccc2I)c2ccccc2C(=O)N(Cc2ccccc2)[C@H]1c1ccc(CO)cc1 in, do you know?
LOW

Would you mind doing CCCCC(O)C1C=CC2C(=O)NC(=O)C2N1Nc1ccc(Cl)cc1Cl (stereo unspecified) as well?
LOW

Would you mind doing COCC(=C=CC[C@@H](O)c1ccc(OCCO)cc1)C[C@@H](O)COCc1ccccc1 as well?
LOW

Would you mind doing C=CC(CO)NC(=O)OCC1c2ccccc2-c2ccccc21 (stereo unspecified) as well?
HIGH

Would you mind doing C[C@@H](OCc1ccccc1)C1NC(=O)[C@@]23C(=O)N[C@@H](Cc4ccccc4)C2[C@H](C)[C@@]2(C)O[C@H]2C3/C=C/C/C=C\CNC(=O)[C@H](Cc2ccccc2)NC1=O (stereo partly specified) as well?
LOW

Would you mind doing CC(C)C[C@@H]1NC(=O)[C@H]2C[C@@H](C(=O)NCCCCCCNC(=O)CS)[C@@H](c3ccc(O)cc3)N2C1=O as well?
HIGH

Would you mind doing CC(C)C[C@@H]1NC(=O)[C@H]2C[C@@H](C(=O)NCCCCCNC(=O)CS)[C@@H](c3ccc(O)cc3)N2C1=O as well?
HIGH

Would you mind doing CC(C)C[C@H]1NC(=O)[C@@H](C)NC(=O)[C@@]23C(=O)N[C@@H](Cc4ccccc4)C2[C@H](C)[C@@]2(C)O[C@H]2C3/C=C/C/C=C\CNC1=O (stereo partly specified) as well?
MEDIUM

Would you mind doing C[N+](C)(C)CCCCCCNC(=O)[C@@H]1C[C@@H]2C(=O)N[C@@H](Cc3ccccc3)C(=O)N2[C@@H]1c1ccc(O)cc1 as well?
HIGH

Would you mind doing CN(C)CCCCNC(=O)[C@H]1C[C@H]2C(=O)N[C@@H](Cc3ccccc3)C(=O)N2[C@H]1c1cccc(OCCO)c1 as well?
MEDIUM

Would you mind doing CC(C)C(=C=CC[C@@H](O)c1ccccc1OCCO)C[C@@H](O)c1cc(Cl)cc(Cl)c1O as well?
HIGH

Would you mind doing N#Cc1ccc(C(O)C2C=CC3C(=O)N(c4ccccc4)C(=O)C3N2Nc2ccc([N+](=O)[O-])cc2)cc1 (stereo unspecified) as well?
MEDIUM

Would you mind doing CCN(CC)c1ccc(N2CC=CC34O[C@@H]5C=CCOC(=O)[C@@H]5[C@H]3C(=O)N(CCCO)[C@@H]4C2=O)cc1 (stereo partly specified) as well?
MEDIUM

Would you mind doing CC1CC/C=C\[C@H]2OC34C=CCN(c5ccc(Cl)cc5)C(=O)[C@H]3N(CCCO)C(=O)[C@]4(C)C2C(=O)O1 (stereo partly specified) as well?
LOW

Would you mind doing O=C1C2C=CC(C(O)c3cccs3)N(Nc3ccccc3)C2C(=O)N1c1ccccc1 (stereo unspecified) as well?
LOW

###

assay: A549 lung cancer cell viability effects, profiling panel, resazurin fluorescence, 24 h, PK04 Diversity Set (AID 1171); settings: higher = more signal, called active from +8 up or from −8 down; further: test concentration not given here
measuredParameter: z-score
Answer with a bare number; do not write a unit.

Would you mind telling me what z-score value was observed for CCCCCCCCCCC(O)C1C=CC2C(=O)N(C)C(=O)C2N1N1CCCCC1 (configuration not stated) ?
-0.041

Would you mind doing CCOC(=O)C1=CCC(c2cc3ccccc3[nH]2)N(S(=O)(=O)c2ccccc2[N+](=O)[O-])C1 (configuration not stated) as well?
-0.869

Would you mind doing C=CCC(OC(C)=O)[C@@H]1[C@@H](N(Cc2cccc3ccccc23)C(=O)c2ccc(C)cc2)c2cc(OCCCO)ccc2N1C(=O)c1ccc2ccccc2n1 (some centres not stated) as well?
0.34

Would you mind doing C=CCNC(=O)[C@@H]1[C@H]2C(=O)O[C@H](c3ccccc3)[C@H](c3ccccc3)N2[C@H](c2ccccc2OCCO)[C@@]12C(=O)N(C(=O)OCCOC)c1ccc(C#CCCO)cc12 as well?
-0.0256

Would you mind doing COc1ccc([Si](C)(C)[C@H]2[C@H](CCO)O[C@@]3(C(=O)N(Cc4ccccc4)c4ccc(N(C=O)c5ccccc5)cc43)[C@@H]2C)cc1 as well?
-1.25

Would you mind doing C=CCC(OC(C)=O)[C@@H]1[C@@H](N(Cc2cc3ccccc3o2)C(=O)Cc2ccc(OC)cc2)c2cc(OCCCO)ccc2N1C(=O)Cc1ccc(OC)cc1 (some centres not stated) as well?
-0.914

Would you mind doing CC(=O)n1cc(C(O)C2C=CC3C(=O)N(c4ccccc4)C(=O)C3N2Nc2ccccc2F)c2ccccc21 (configuration not stated) as well?
0.423
